The measurements presented in this section are drawn from patent US9376436B2.

target: hNaV1.7 (Homo sapiens, UniProt Q15858); construct: expressed in transfected cells; host or cells: HEK293; experiment: QPatch NaV1.7 assay (whole-cell patch clamp, QPatch16x); type: cell-based; settings: holding voltage V1/2 SSI (half of channels inactivated), HEK293-hNaV1.7 cells, read-out: QP Nav1.7 SSI vhalf pIC50 (converted)
Sequence (Q15858 whole entry): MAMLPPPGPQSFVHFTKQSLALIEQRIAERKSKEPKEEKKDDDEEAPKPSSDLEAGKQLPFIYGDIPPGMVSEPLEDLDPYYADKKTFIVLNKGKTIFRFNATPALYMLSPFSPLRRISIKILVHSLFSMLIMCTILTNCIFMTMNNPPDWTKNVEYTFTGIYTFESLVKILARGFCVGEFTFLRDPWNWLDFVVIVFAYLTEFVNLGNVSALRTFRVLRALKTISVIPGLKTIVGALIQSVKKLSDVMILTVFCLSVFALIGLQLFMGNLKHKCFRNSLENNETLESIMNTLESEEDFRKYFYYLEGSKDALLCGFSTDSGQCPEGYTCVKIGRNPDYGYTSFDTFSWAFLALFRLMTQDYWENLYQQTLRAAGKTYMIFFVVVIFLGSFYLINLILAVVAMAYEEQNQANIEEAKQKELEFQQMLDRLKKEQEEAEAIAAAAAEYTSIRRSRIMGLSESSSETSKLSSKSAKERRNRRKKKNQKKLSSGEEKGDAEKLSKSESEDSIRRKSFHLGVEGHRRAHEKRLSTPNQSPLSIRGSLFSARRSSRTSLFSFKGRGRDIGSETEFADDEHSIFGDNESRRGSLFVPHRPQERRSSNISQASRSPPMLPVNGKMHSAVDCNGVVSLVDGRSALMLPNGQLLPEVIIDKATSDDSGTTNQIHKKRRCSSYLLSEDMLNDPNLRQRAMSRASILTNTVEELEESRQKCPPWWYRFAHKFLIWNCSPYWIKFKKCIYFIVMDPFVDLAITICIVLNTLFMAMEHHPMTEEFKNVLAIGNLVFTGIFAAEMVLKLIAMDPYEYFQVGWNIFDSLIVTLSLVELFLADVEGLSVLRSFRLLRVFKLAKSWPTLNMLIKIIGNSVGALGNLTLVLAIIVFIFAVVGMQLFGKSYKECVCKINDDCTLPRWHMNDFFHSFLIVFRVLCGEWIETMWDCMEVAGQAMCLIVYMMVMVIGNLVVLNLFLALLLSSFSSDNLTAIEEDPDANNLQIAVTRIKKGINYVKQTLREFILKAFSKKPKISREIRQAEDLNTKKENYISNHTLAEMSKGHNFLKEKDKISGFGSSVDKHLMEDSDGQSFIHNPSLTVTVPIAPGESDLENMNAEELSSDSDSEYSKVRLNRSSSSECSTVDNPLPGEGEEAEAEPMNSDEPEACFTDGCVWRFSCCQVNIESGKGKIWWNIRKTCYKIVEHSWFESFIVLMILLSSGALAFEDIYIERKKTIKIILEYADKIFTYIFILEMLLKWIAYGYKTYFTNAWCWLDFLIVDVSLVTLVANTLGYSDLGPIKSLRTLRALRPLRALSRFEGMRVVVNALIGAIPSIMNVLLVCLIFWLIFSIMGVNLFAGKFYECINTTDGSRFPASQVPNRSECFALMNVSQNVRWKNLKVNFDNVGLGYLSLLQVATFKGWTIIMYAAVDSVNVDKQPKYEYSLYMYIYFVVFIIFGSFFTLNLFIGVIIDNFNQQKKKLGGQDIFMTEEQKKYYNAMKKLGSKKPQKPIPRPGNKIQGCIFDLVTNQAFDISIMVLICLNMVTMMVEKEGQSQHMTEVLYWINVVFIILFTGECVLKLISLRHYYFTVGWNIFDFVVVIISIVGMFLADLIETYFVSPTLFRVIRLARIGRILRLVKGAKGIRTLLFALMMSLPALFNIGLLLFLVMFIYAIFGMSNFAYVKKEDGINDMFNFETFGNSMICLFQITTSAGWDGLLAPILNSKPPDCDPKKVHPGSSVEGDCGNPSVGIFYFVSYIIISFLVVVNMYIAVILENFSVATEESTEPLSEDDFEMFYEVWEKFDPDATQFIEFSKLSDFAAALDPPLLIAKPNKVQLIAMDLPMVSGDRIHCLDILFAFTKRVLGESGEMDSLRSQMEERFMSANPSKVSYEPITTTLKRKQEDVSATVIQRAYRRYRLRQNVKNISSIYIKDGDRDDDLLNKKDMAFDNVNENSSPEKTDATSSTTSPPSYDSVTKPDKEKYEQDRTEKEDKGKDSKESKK
Structures can show the parent of a compound that is named as a salt.
Endpoint label: IC50 (µM)

                                   compound                           target_system  measured_number
0  CCOc1ccc(F)c(-c2cc(C)nc([C@@H]3CC[C@]4(CCNC4=O)N3)c2)c1 [Example 102, hydrochloride]  hNaV1.7 (Homo sapiens, UniProt Q15858)                2

[I] CCCOc1ccc(F)c(-c2ccnc([C@H]3CC[C@@]4(CCN(C)C4=O)N3)c2)c1 [Example 177, hydrochloride]
[II] CN1CC[C@@]2(CC[C@H](c3cc(-c4ccc5c(c4)CCO5)ccn3)N2)C1=O [Example 166, hydrochloride]
Prompt: Consider I and II . Which of these has its IC50 at a higher number? Response format: the label of the selected entry.
Completion: II

* * *

molecular target: hNaV1.7 (Homo sapiens, UniProt Q15858); construct: expressed in transfected cells; host or cells: HEK293; experiment: QPatch NaV1.7 assay (whole-cell patch clamp, QPatch16x); format: cell-based; conditions: holding voltage V1/2 SSI (half of channels inactivated), HEK293-hNaV1.7 cells, read-out: QP Nav1.7 SSI vhalf pIC50 (converted)
Where a name gives a salt, the structure may show the parent alone.
Endpoint label: IC50 (µM)

                                   compound  measured_number
0  CCOc1cc(F)cc(-c2cc(C)nc([C@H]3CC[C@@]4(CCN(C)C4=O)N3)c2)c1 [Example 197, hydrochloride]             5.01
1  Cc1cc(-c2ccc(C(F)(F)F)cc2)cc([C@H]2CC[C@]3(CCNC3=O)N2C)n1 [Example 227, hydrochloride]             12.6
2  Cc1cc(-c2cc(OC(C)C)ccc2F)cc([C@H]2CC[C@@]3(CCN(C)C3=O)N2)n1 [Example 198, hydrochloride]             5.01
3  O=C1NCCC[C@@]12CC[C@@H](c1cc(-c3ccc(C(F)(F)F)cc3)ccn1)N2 [Example 48, hydrochloride]                2

[1] CCOc1ccc(F)c(-c2ccnc([C@H]3CC[C@]4(CC(C)(C)NC4=O)N3)c2)c1 [Example 218, hydrochloride]
[2] CCOc1ccc(F)c(-c2ccnc([C@@H]3CC[C@@]4(CCCNC4=O)N3)c2)c1 [Example 109, hydrochloride]
[3] CCOc1ccc(F)c(-c2ccnc([C@@H]3CC[C@@]4(CC(C)(C)NC4=O)N3)c2)c1 [Example 216, hydrochloride]
[4] CN1CC[C@@]2(CC[C@H](c3cc(-c4ccc(F)c(F)c4)ccn3)N2)C1=O [Example 11, hydrochloride]
[5] CCOc1ccc(F)c(-c2cc(C(C)C)nc([C@@H]3CC[C@]4(CCN(C)C4=O)N3)c2)c1 [Example 235, hydrochloride]
Prompt: # rank_down: sort by IC50, max first In plain terms: list the labels in the order you were asked to.
Completion: 4, 3, 5, 2, 1

[P] CCOc1ccc(F)c(-c2ccnc([C@H]3CC[C@@]4(CCN(C)C4=O)N3)c2C)c1 [Example 215, hydrochloride]
[Q] CCOc1ccc(F)c(-c2cc([C@@H]3CC[C@]4(CCN(C)C4=O)N3)ncc2C)c1 [Example 139, hydrochloride]
Prompt: Consider P and Q . Which of these has its IC50 at a higher number? Response format: the label of the selected entry.
Completion: Q
(Q: 39.8 µM, P: 12.6 µM)
